TARGET_OR_TEST_SYSTEM: Mitogen-activated protein kinase 8 (Homo sapiens)
Sequence (P45983 whole entry): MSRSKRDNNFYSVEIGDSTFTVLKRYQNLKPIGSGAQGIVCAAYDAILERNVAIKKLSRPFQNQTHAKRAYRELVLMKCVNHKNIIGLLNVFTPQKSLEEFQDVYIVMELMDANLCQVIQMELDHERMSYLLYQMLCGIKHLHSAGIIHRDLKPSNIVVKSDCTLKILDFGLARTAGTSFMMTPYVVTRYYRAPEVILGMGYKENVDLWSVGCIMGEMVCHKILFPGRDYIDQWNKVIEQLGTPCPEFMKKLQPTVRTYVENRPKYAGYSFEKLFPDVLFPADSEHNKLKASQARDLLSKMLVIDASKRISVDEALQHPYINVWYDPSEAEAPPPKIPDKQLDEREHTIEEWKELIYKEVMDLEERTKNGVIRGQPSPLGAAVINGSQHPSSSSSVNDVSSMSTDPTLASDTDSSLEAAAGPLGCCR
PROCEDURE_TEXT: Inhibition of JNK1
pIC50: −log10 of the molar value.

{"CPD_SMILES": "COc1ccc(-n2cnc3ccc(-c4nnc(SCc5cccc(C#N)c5)o4)cc32)cc1", "pIC50": "< 5.00"}

---

TARGET_OR_TEST_SYSTEM: Mitogen-activated protein kinase 3 (Homo sapiens, UniProt P27361)
Sequence (P27361 whole entry): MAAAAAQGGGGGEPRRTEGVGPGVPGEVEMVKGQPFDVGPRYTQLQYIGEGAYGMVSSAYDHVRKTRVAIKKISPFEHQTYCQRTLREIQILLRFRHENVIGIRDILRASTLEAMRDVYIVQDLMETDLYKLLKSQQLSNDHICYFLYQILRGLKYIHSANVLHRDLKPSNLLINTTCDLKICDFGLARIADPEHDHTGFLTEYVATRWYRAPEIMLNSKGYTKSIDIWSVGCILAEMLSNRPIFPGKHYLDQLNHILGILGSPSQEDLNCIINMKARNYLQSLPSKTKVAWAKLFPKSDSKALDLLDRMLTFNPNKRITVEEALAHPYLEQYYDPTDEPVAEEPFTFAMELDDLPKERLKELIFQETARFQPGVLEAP
PROCEDURE_TEXT: Inhibition of ERK1
pIC50: −log10 of the molar value.

{"CPD_SMILES": "COc1ccc(-n2cnc3ccc(-c4nnc(SCc5cccc(C#N)c5)o4)cc32)cc1", "pIC50": "< 5.00"}
